The reader will find reported inhibition values listed item by item below.
molecular target: Receptor-type tyrosine-protein phosphatase F (Homo sapiens); assay: Inhibition of human recombinant LAR at 20 ug/mL
reported property: inhibition

molecule="COc1ccc2c(c1C=O)CC(O)OC2 (stereo unspecified)" reported=20%
molecule="COc1ccc2c(c1)CC(O)OC2=O (stereo unspecified)" reported="< 5%"
molecule=COC(=O)c1ccc(OC)c(CO)c1CCO reported="< 5%"
molecule=COc1ccc2c(c1C=O)CCOC2=O reported="< 5%"
molecule=COC(=O)c1ccc(OC)c(C=O)c1CC=O reported="< 5%"
molecule=COc1ccc(C(=O)O)c(CCO)c1CO reported="< 5%"

----------
biological target: Receptor-type tyrosine-protein phosphatase F (Homo sapiens, UniProt P10586)
Sequence (P10586 whole entry): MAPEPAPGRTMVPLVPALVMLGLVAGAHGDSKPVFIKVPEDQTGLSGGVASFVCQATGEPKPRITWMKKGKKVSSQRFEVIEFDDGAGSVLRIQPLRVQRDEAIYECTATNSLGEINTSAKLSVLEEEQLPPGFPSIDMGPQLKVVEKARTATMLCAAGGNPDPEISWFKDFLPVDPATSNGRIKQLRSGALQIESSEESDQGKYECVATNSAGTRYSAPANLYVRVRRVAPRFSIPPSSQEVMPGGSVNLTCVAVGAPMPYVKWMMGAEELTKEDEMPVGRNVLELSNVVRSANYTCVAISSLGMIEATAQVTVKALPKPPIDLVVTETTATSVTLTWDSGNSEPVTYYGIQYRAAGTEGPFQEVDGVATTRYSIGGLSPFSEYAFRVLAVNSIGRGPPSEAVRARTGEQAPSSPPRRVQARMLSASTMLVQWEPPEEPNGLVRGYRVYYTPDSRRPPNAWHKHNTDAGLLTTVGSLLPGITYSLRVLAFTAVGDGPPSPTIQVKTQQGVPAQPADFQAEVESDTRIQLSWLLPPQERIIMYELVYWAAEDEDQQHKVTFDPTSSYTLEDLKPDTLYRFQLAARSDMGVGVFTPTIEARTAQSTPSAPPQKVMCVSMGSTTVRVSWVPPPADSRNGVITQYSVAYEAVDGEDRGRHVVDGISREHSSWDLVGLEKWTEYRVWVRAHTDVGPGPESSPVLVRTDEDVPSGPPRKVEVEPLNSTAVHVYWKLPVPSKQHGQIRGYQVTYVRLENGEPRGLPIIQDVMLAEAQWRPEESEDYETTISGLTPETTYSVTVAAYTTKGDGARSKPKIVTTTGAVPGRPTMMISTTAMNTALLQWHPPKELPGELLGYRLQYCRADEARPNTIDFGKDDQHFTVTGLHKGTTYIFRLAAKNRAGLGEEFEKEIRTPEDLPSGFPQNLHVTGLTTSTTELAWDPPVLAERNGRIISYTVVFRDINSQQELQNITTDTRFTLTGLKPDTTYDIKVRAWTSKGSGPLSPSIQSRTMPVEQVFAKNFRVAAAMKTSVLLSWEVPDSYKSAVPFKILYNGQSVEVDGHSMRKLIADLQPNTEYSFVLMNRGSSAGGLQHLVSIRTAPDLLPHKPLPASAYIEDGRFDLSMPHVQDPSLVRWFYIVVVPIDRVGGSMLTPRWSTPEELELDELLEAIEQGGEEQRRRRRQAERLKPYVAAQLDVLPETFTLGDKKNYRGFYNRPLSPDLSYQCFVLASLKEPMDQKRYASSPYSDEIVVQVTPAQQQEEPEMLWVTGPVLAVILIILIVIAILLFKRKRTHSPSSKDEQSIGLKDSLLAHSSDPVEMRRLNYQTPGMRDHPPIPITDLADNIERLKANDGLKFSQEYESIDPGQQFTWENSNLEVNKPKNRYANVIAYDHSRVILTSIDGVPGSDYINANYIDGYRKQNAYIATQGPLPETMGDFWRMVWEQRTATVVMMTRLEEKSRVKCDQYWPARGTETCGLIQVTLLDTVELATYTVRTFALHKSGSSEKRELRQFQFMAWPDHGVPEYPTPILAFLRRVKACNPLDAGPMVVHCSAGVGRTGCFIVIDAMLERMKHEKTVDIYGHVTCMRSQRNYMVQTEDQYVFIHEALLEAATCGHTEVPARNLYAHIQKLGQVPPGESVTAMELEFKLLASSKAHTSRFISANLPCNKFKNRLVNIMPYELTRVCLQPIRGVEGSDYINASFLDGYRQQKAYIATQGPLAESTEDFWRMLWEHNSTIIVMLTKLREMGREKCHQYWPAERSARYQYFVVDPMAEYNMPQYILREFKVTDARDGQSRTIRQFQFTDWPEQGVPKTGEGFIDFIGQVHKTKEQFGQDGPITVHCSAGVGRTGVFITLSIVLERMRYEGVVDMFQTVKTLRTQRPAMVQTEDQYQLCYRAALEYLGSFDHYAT
pKi: −log10 of the molar value.
reported property: pKi

compound="CC(=O)NC(Cc1ccc(N(C(=O)C(=O)O)c2ccccc2C(=O)O)c2ccccc12)C(=O)NCCCCCOc1cc2ccccc2cc1C(=O)O (stereo unspecified)" target_under_test="Receptor-type tyrosine-protein phosphatase F (Homo sapiens, UniProt P10586)" reported=5.89

----------
molecular target: Receptor-type tyrosine-protein phosphatase F (Homo sapiens); assay: Inhibition of LAR
pIC50: −log10 of the molar value.
The reader will find reported pIC50 values listed item by item below.
reported property: pIC50

compound="CSc1ccnc(C[S+]([O-])c2nc3cc(OC(C)C)ccc3[nH]2)c1 (stereo not drawn)" target_under_test="Receptor-type tyrosine-protein phosphatase F (Homo sapiens)" reported=4.74
compound=O=C(O)COc1c(O)cc(-c2cc(C(F)(F)F)cc(C(F)(F)F)c2)cc1OCc1cccc(C(F)(F)F)c1 target_under_test="Receptor-type tyrosine-protein phosphatase F (Homo sapiens)" reported=3.94
compound=O=C(O)COc1c(C(=O)O)sc(-c2ccc(NC(=O)c3cccnc3)cc2)c1Br target_under_test="Receptor-type tyrosine-protein phosphatase F (Homo sapiens)" reported=3.49
